- PROTOCOL: Cytotoxicity against human MCF7 cells assessed as decrease in cell viability after 48 hrs by XTT assay
- Type: cell-based
Mark met only when CC50 at 48 h stays strictly below 20 µM. Values equal to the cut-off are not met.

Dear colleague, could you confirm whether CC50 at 48 h of "COc1ccc2c(c1)C(=O)C(c1ccc(N3CCOCC3)cc1)=[N+]2[O-]" falls below 20 µM? Thanks.
not met

Next:
Dear colleague, could you confirm whether CC50 at 48 h of "O=C1C(c2ccccc2)=[N+]([O-])c2cc([N+](=O)[O-])c(/C=C(\Cl)c3ccccc3)cc21" falls below 20 µM? Thanks.
not met

Can you handle "COc1ccc2c(c1)C(=O)C(c1ccc(N)cc1)=[N+]2[O-].Cl" next?
met

Can you handle "COc1ccc2c(c1)C(=O)C(c1cccnc1)=[N+]2[O-]" next?
met

Can you handle "COc1ccc2c(c1)[N+]([O-])=C(c1ccc(N)cc1)C2=O" next?
met

Can you handle "CN(C)c1ccc(C2=[N+]([O-])c3cc(N)ccc3C2=O)cc1" next?
not met

Can you handle "CCCCNc1ccc(C2=[N+]([O-])c3ccc(OC)cc3C2=O)cc1" next?
not met

* * *

- System: Plasmodium falciparum
- PROTOCOL: Antiplasmodial activity against chloroquine-resistant Plasmodium falciparum FcB1 infected in human RBC assessed as [3H]-hypoxanthine incorporation after 48 hrs by liquid scintillation counting analysis
- Format: functional, organism-based
- CONDITION_SUMMARY: Plasmodium falciparum, FcB1
Below, each entry is listed alongside its reported IC50.
Provide the reading as a plain figure in nM.

Look over these answered cases.
Need IC50, item "Nc1ccc2c(c1)[N+]([O-])=C(c1ccc(Cl)cc1)C2=O"
183

Can you handle "COc1ccc2c(c1)C(=O)C(c1ccc(N(C)C)c(C)c1)=[N+]2[O-]" next?
40

Can you handle "O=C1C(c2ccccc2)=[N+]([O-])c2cc([N+](=O)[O-])c(/C=C(\Cl)c3ccccc3)cc21" next?
840

Can you handle "COc1ccc2cc(C3=[N+]([O-])c4cc(N)ccc4C3=O)ccc2c1" next?
1320

Can you handle "COc1ccc2c(c1)[N+]([O-])=C(c1ccc(N)cc1)C2=O" next?
24

Next:
Need IC50, item "COc1ccc2c(c1)C(=O)C(c1ccc(N3CCOCC3)cc1)=[N+]2[O-]"
6.5

Can you handle "CCCCNc1ccc(C2=[N+]([O-])c3ccc(OC)cc3C2=O)cc1" next?
21

Can you handle "CN(C)c1ccc(C2=[N+]([O-])c3cc(N)ccc3C2=O)cc1" next?
12300

Can you handle "Nc1ccc2c(c1)[N+]([O-])=C(CCCN1C(=O)c3ccccc3C1=O)C2=O" next?
8300

Can you handle "Nc1ccc(C2=[N+]([O-])c3ccccc3C2=O)cc1" next?
168

Can you handle "CCOC(=O)c1ccc2c(c1)[N+]([O-])=C(c1ccccc1)C2=O" next?
284

Can you handle "COc1ccc2c(c1)C(=O)C(c1cccnc1)=[N+]2[O-]" next?
161

Can you handle C[C@H]1[C@H](OC(=O)CCC(=O)O)O[C@@H]2O[C@@]3(C)CC[C@H]4[C@H](C)CC[C@@H]1[C@@]24OO3 [SODIUM ARESUNATE] next?
6

Can you handle "COc1ccc(C2=[N+]([O-])c3cc(N)ccc3C2=O)cc1" next?
1560

Values from ChEMBL document CHEMBL3352368
